# assay notes: inhibitors of E-selectin induction by TNFa, primary screen, imaging, HUVEC, immunofluorescence, MLSMR starter and 10KST1 sets (AID 487);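 further: signal is fraction of cell area covered by stained E-selectin grains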
# protocol conditions: HUVEC TNFalpha-induced E-selectin immunofluorescence imaging, at 2 µM; stronger effect = higher value
value kind: inhibition (%)
Answers are plain numbers, in %.

Observe how each entry below is paired with its result.
>  <compound>
CC(C)(C)C1=Nn2c(nnc2-c2ccco2)SC1

>  <scale unit>
%

>  <inhibition>
-70.4

$$$$
>  <compound>
CCOC(=O)C1CCN(c2nc3ccccc3nc2C(C#N)C(=O)OCCOC)CC1 (stereo not drawn)

>  <scale unit>
%

>  <inhibition>
-67.9

$$$$

[in] Look up inhibition for this compound: COCCc1ccc(OCC(O)CNC(C)C)cc1 (stereo not drawn)
[out] -71.5

###

# assay notes: inhibitors of mutant huntingtin aggregation, primary screen, imaging, exon1htt(103Q)mCFP cells, high-content imaging (AID 483);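 further: compound exposure lasted 3 days before fixation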
# protocol conditions: exon1htt(103Q)mCFP cell line, aggregate imaging, at 2 µM; stronger effect = higher value
Activity calls are given as the source filed them.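 How the source made its calls: active means visual image review flags a hit and inhibition of aggregation exceeds 20%; inconclusive means visual hit but inhibition at or below 20%; inactive means no hit on visual image review.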
Exercise: for every item that follows, state its recorded inhibition of aggregation.

>  <cpd smiles>
OCCN1CCN(CCCN2c3ccccc3Sc3ccc(Cl)cc32)CC1

>  <inhibition of aggregation>
-20.6% (inactive)

$$$$
>  <cpd smiles>
O=C(O)CCc1cc(I)c(Oc2ccc(O)c(I)c2)c(I)c1

>  <inhibition of aggregation>
-4.4% (inactive)

$$$$

[in] Query (compound): O=C(O)Cc1ccc(-c2ccccc2)cc1 ; field requested: inhibition of aggregation
[out] -7.3% (inactive)

###

# assay notes: DUSP6 inhibitors restoring Erk phosphorylation by chemical complementation, primary imaging in DUSP6-transfected HeLa (AID 609)
# protocol conditions: HeLa MKP-3 transfected, phospho-Erk imaging KS statistic; measured here: nuclear c-Myc green intensity z-score; at 10 µM; cells stimulated with TPA for 15 min
# label = bin(measured z-score), where bins are low (below -0.6), mid (-0.6 to below 0.5), high (0.5 or more)

Please review the following examples before continuing.
>  <compound>
O=C(Nc1ncn[nH]1)c1c(Cl)ccc(Cl)c1Cl

>  <answer label>
high

$$$$
>  <compound>
Cc1cccc2c1NC(C)CC2C (centres undefined)

>  <answer label>
low

$$$$
>  <compound>
CCN(CC)CCCn1c(C)cc2c(c1=O)C(c1ccc(OC)c(OC)c1OC)C(C#N)=C(N)O2 (centres undefined)

>  <answer label>
mid

$$$$
>  <compound>
Cc1occc(=O)c1OC(=O)Nc1ccccc1

>  <answer label>
high

$$$$

[in] State the class of the compound shown: COc1cc(C)nc(N(C)S(=O)(=O)c2ccccc2Cl)n1
[out] mid

[in] # bin label for Cn1c(=O)c2c(nc(Br)n2CCSc2ncccn2)n(C)c1=O
[out] mid

[in] Which z-score band matches Cc1c(N=Cc2c(O)n(C3CCCCC3)c(=O)[nH]c2=O)c(=O)n(-c2ccccc2)n1C ?
[out] low

[in] Hello team, could you let me know which band the following compound falls into: CCOC(=O)C1/C(=N\O)CC(C)(O)C(C(=O)OCC)C1c1ccc(N(C)C)cc1 (centres undefined)
[out] high

[in] For this compound, which bin applies? Cc1nc(NS(=O)(=O)c2ccccc2)sc1NC(=O)OCCN(C)C
[out] mid

[in] For this compound, which bin applies? CCCCC(C(=O)O)C(C)CC(=O)Nc1cccc(C(=O)O)c1 (centres undefined)
[out] low

[in] Please report the category associated with CCCCC1(C(=O)OCC)CC(CN2CCOCC2)OC1=O (centres undefined) , nothing else.
[out] low

[in] Category of CC(C)NC(=O)N1CCOCCOCCN(C(=O)NC(C)C)CCOCCOCC1 , please.
[out] low

[in] Which z-score band matches CC(C)C1Cc2c(sc3c2c(=O)n(Cc2ccccc2)c2nncn32)CO1 (centres undefined) ?
[out] mid

[in] Assign a bin to O=C1C(CCS(=O)c2ccccc2)C(=O)N(c2ccccc2)N1c1ccccc1 (centres undefined)
[out] high

Every entry's value here was drawn from PubChem BioAssay.
